- Read-out: Plasminogen activator inhibitor-1 (PAI1), SERPINE1 (gene 5054)
- protocol: BSK_MyoF_PAI1: BioMAP Diversity Plus: MyoF Assay for Plasminogen activator inhibitor-1 (PAI1) Biomarker Activity (AID 2284256)
- conditions-used: primary human lung fibroblasts
Active and inactive are the calls of the source. How the source made its calls: active means hit-call score of the fitted dose curve at least 0.9, where 1 is the maximum; inactive means score below 0.9.
Parameter call: string, one of active, inactive

Example entries begin here.
[
  {
    "compound": "Cc1cccc2c1ccc1ccccc12",
    "qualitative-label": "inactive"
  },
  {
    "compound": "CCCCC(CC)C(=O)OCCOCCOCCOCCOC(=O)C(CC)CCCC (stereo not drawn)",
    "qualitative-label": "inactive"
  },
  {
    "compound": "OCCN1CN(CCO)CN(CCO)C1",
    "qualitative-label": "inactive"
  },
  {
    "compound": "CC1=NN(c2ccccc2)C(=O)C1",
    "qualitative-label": "inactive"
  },
  {
    "compound": "COCN(COC)c1nc(N(COC)COC)nc(N(COC)COC)n1",
    "qualitative-label": "inactive"
  }
]

Incoming: Would you mind telling me which call this test gave "OCC(F)(F)C(F)(F)C(F)(F)C(F)(F)C(F)(F)C(F)(F)C(F)(F)C(F)(F)C(F)(F)C(F)(F)C(F)(F)F" ?
Outgoing: inactive

Incoming: Would you mind telling me which call this test gave "C[C@]12CC[C@@H]3c4ccc(O)cc4CC[C@H]3[C@@H]1C[C@@H](O)[C@@H]2O" ?
Outgoing: inactive

Incoming: Would you mind telling me which call this test gave "NC(=NCCCCCCN=C(N)/N=C(\N)Nc1ccc(Cl)cc1)/N=C(\N)Nc1ccc(Cl)cc1" ?
Outgoing: active
